- EXPERIMENTAL_SYSTEM: Serine/threonine-protein kinase D2 (Homo sapiens);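 further: mean value of PRKD2 inhibition, from the GSK PKIS screening panel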
- RECORDED_CONDITIONS: at 1 µM
Listed here are compounds together with their documented inhibition.
Lab book: enter the figure in %, no units written.

Some solved cases for reference:
[[record]]
compound = "O=C(O[C@H]1CN[C@H](C#Cc2cc3ncnc(Nc4ccc(OCc5cccc(F)c5)c(Cl)c4)c3s2)C1)N1CCOCC1"
numeric_value = 6.01

[[record]]
compound = "CNC(=O)c1sc(-n2cnc3cc(OC)c(OC)cc32)cc1OCc1ccccc1C(F)(F)F"
numeric_value = 4.27

[[record]]
compound = "CC1=C(C(=O)Nc2ccc3[nH]ncc3c2)C(c2ccc(F)cc2)N=C(c2ccc(C(F)(F)F)nc2)N1 (centres undefined)"
numeric_value = 2.33

[[record]]
compound = "NS(=O)(=O)c1cccc(N/C=C2\\C(=O)Nc3ccccc32)c1"
numeric_value = 11


**Q:** Give inhibition for this entry on Serine/threonine-protein kinase D2 (Homo sapiens): `Cc1cc(O)cc(C)c1/C=C/c1cncc(C(N)=O)c1`
**A:** 2.16

**Q:** Would you please give the reported inhibition of `COc1cc(N2CCN(C(C)C)CC2)ccc1Nc1nc(Nc2cccc(F)c2C(=O)O)c2cc[nH]c2n1` with Serine/threonine-protein kinase D2 (Homo sapiens)?
**A:** 4.66
